biological target: human epidermal growth factor receptor 2 (HER2), membrane-bound on cells (human, UniProt P04626 23-1255); test: cell-based or functional assay
PROPERTY NAME: EC50 of cell kill, A431, anti-kappa-ETA'-conjugated (ng/mL)
One number for each entry, in ng/mL.

Suppose we examine the binder HuMab 098 (antibody, V domains shown, also called TH1014-098; PC1014-098) VH: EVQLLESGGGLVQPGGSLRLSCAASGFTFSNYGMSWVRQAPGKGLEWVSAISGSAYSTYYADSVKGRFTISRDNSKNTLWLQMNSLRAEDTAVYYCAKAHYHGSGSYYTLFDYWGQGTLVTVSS VL: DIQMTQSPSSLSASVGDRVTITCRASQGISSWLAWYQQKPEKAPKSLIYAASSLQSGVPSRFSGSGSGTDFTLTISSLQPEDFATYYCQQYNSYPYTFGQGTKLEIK ; what EC50 of cell kill, A431, anti-kappa-ETA'-conjugated value has been reported?
1.65
